Quick list: residual activity per entry.
- TARGET DESC: NTRK1 (human) (UniProt P04629)
- Sequence (P04629 whole entry, looked up): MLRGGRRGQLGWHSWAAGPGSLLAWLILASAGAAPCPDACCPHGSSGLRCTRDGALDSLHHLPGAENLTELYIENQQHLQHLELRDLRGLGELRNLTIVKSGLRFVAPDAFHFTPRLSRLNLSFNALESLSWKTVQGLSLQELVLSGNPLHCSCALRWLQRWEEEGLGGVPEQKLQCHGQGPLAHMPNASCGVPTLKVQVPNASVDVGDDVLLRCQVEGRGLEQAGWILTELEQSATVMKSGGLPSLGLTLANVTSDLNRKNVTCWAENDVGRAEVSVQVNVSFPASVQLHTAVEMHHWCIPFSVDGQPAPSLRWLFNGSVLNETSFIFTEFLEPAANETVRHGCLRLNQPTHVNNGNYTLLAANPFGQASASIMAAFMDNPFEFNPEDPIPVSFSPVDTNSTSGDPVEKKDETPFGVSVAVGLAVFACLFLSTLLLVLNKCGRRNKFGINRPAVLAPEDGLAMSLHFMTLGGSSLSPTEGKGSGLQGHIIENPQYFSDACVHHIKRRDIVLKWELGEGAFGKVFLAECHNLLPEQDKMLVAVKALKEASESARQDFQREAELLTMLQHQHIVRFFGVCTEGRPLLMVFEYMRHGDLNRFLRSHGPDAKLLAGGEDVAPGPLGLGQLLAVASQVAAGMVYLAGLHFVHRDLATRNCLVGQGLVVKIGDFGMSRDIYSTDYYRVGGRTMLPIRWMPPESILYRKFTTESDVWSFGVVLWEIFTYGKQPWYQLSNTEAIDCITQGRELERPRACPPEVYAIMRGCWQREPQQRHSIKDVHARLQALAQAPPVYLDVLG
- EXPERIMENT DESCRIPTION: radiometric filter-binding kinase assay, Kinase HotSpot
- MEASUREMENT CONDITIONS: compound 0.5 µM; ATP 10 µM

SMILES STR | TARGET DESC | residual activity / %
O=c1c2ccccc2[nH]c(=S)n1CCN1CCC(=C(c2ccc(F)cc2)c2ccc(F)cc2)CC1 | NTRK1 (human) (UniProt P04629) | 97
O=c1cc(N2CCOCC2)oc2c(-c3ccccc3)cccc12 | NTRK1 (human) (UniProt P04629) | 95
N#Cc1c(NC(=O)c2cccc3ccccc23)sc2c1CCCC2 | NTRK1 (human) (UniProt P04629) | 105
N/C(=N\N=C/c1ccc(-c2cccc([N+](=O)[O-])c2)o1)N[N+](=O)[O-] | NTRK1 (human) (UniProt P04629) | 96
CCc1nc(-c2ccc(OC)cc2)[nH]c1-c1ccncc1 | NTRK1 (human) (UniProt P04629) | 106
Nc1ncnc2c1cnn2-c1ccccc1 | NTRK1 (human) (UniProt P04629) | 96.1

Data origin, for the record: the kinase profiling compilation of Christmann-Franck et al. (2016)
